Molecular target: Aminopeptidase N (Plasmodium falciparum (isolate 3D7)) (UniProt O96935)
Sequence (O96935 whole entry, looked up): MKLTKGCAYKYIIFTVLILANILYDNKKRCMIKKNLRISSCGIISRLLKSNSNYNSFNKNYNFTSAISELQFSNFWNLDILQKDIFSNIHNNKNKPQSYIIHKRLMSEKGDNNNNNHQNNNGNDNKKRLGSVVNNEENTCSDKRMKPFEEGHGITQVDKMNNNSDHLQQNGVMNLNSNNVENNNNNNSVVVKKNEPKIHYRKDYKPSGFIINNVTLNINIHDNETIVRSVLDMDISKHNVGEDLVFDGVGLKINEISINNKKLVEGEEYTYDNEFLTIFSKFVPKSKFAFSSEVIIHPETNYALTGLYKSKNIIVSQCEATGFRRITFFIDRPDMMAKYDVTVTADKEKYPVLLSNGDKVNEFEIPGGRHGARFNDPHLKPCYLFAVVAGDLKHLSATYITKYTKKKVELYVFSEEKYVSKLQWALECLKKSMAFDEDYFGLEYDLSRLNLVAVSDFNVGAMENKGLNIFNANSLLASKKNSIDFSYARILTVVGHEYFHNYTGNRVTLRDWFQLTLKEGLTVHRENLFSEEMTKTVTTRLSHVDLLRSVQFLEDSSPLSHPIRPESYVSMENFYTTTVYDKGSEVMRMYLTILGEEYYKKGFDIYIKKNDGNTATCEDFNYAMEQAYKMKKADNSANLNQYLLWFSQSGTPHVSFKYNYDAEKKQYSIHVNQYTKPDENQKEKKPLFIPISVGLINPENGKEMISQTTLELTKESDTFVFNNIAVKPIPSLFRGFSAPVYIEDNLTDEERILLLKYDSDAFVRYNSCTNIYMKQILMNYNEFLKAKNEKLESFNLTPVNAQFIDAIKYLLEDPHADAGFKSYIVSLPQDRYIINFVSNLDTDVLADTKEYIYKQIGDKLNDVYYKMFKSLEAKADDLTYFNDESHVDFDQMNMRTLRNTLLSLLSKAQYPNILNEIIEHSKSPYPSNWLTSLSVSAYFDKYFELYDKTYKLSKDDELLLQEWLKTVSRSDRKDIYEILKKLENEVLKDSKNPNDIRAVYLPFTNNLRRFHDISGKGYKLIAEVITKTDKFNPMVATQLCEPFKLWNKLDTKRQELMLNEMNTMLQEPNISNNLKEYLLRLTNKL
Test: P. falciparum M1AAP inhibitors, biochemical, fluorogenic H-Leu-NHMec substrate, 1536-well (AID 1445);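 also: plate controls were DMSO full reaction for no effect and no enzyme background for full effect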
Conditions: recombinant M1AAP, H-Leu-NHMec fluorogenic kinetic assay; at 30 µM; active compounds read high
Among all 220,000 compounds or so, about 910 (0.41%) were called active. What follows is part of a selection rich in actives, with near analogues and random picks from the rest. Entries with a potency or affinity are not part of this list.
ENDPOINT LABEL: inhibition (%)
Respond numerically; units are % and should not be typed.

For reference, reported inhibition for COc1cc2c(C(=O)N3CCN(C)CC3)c(C)n(C)c2cc1Br stands at 0.34

inhibition measured on CC(C)CNC(=O)c1c(N)n(Cc2ccco2)c2nc3ccccc3nc12 = 13

What the record says about CC(=NCCN1CCOCC1)c1c(O)n(C2CCCCC2)c(=O)[nH]c1=O : inhibition is -4.11

Given item COC(=O)C(O)(c1cn(C)c2ccccc12)C(F)(F)F (stereo not drawn) , the value recorded as its inhibition is -1.11

inhibition recorded for this molecule, CCC(=O)N1N=C2C3CCN(CC3)C2C1c1ccccc1 (stereo not drawn) , is 0.59

The recorded inhibition for CC(C)OC(=O)c1c(N)n(Cc2ccco2)c2nc3ccccc3nc12 is 26.7

Lookup result for CCCCOCCCn1c(N)c(C(=O)OCCOC)c2nc3ccccc3nc21 ; measured inhibition: 19.1

Data point: CCCNC(=O)c1c(N)n(Cc2ccco2)c2nc3ccccc3nc12 ; inhibition = 19.9

Entry COc1ccc2c(c1)c(C(=O)O)c(C)n2C(C)C — recorded inhibition = 1.69

The molecule COCCOC(=O)c1c(N)n(Cc2ccccc2)c2nc3ccccc3nc12 showed inhibition equal to 25

For reference, reported inhibition for O=C1Nc2ccccc2C1Cc1nc2ccccc2c(=O)n1-c1ccccc1 (stereo not drawn) stands at -1.31

Lookup result for O=C(C1CCC(=O)N1Cc1ccccc1Cl)N1CCC2(CC1)OCCO2 (stereo not drawn) ; measured inhibition: 4.98

The recorded inhibition for Cc1ccc(-n2c(O)c(C=Nc3ccc(S(=O)(=O)N(C)C)cc3)c(=O)[nH]c2=O)cc1 is 13.7

get_value(item= COCC(C)OC(=O)c1c(N)n(Cc2ccco2)c2nc3ccccc3nc12 (stereo not drawn) , readout=inhibition) returns 17.3

Entry CCC(=NCCc1c[nH]c2ccccc12)c1c(O)n(-c2ccc(C)cc2)c(=O)[nH]c1=O , inhibition reported as 1.85

Reported inhibition for CCOC(=O)c1c(N)n(Cc2ccc(OC)cc2)c2nc3ccccc3nc12 was 13.6

// inhibition lookup, molecule = CC(=O)c1cccc(NC2=NCC(C)S2)c1 (stereo not drawn) , result: 24.8

The recorded inhibition for CCOC(=O)c1nc2ccccc2c(=O)n1-c1cccc(C)c1 is 0.05

Just so you know, measured inhibition for CCOC(=O)C(O)(c1ccc(N=c2ccccn2C)cc1)C(F)(F)F (stereo not drawn) came out at 6.08

Kindly note the recorded inhibition for c1ccc(C2=NP(N3CCOCC3)(N3CCOCC3)=NC(N3CCOCC3)=N2)cc1 , which is -3.04

The molecule identified as Cc1cccc(-n2c(-c3cccs3)nc3ccccc3c2=O)c1 registered its inhibition at 4.14

Field inhibition (entry C=CCNC(=O)c1c(N)n(Cc2ccco2)c2nc3ccccc3nc12 ) reads 24.2

Entry under test: CCC(=NCC1CCCO1)c1c(O)n(-c2ccccc2C)c(=O)[nH]c1=O (stereo not drawn) . Its inhibition was 6.89
